Measured values drawn from patent US20240059655A1 for this set.

method: In vivo PK in rats
recorded_conditions: male, Sprague-Dawley, rat, plasma, oral, 20 mg/kg
assay_readout: bioavailability

1) O=C(NCCO)c1cccc2c1CCN2c1cc(Cc2cc(F)cc(C(F)(F)F)c2)ncn1 [Compound 12c]	76%

* * *

method: In vivo PK in rats
recorded_conditions: male, Sprague-Dawley, plasma; rat, IV 10 mg/kg; read-out: Vss
assay_readout: Vd

1) O=C(NCCO)c1cccc2c1CCN2c1cc(Cc2cc(F)cc(C(F)(F)F)c2)ncn1 [Compound 12c]	1.5 L/kg

* * *

experimental_target: 5-HT2C (Homo sapiens (Human))
Sequence (P28335 33-458, species assumed): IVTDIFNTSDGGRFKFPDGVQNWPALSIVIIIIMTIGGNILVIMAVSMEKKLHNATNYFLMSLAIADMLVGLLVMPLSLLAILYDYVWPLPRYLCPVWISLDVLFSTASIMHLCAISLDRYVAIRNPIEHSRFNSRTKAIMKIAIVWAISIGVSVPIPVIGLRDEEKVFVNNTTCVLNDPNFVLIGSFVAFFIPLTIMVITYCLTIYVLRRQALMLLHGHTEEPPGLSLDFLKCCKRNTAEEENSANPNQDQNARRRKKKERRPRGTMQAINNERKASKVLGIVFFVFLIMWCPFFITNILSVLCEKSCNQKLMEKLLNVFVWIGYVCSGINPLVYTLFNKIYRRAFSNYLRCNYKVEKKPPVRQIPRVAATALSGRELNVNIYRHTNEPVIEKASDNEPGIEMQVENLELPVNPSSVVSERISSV
method: NIMH-PDSP broad-panel counter screening (binding)
assay_readout: Ki

1) O=C(NCCO)c1cccc2c1CCN2c1cc(Cc2cc(F)cc(C(F)(F)F)c2)ncn1 [Compound 12c]	> 10 µM

* * *

experimental_target: human GPR52 (Homo sapiens (Human), UniProt Q9Y2T5)
Sequence (Q9Y2T5 whole entry): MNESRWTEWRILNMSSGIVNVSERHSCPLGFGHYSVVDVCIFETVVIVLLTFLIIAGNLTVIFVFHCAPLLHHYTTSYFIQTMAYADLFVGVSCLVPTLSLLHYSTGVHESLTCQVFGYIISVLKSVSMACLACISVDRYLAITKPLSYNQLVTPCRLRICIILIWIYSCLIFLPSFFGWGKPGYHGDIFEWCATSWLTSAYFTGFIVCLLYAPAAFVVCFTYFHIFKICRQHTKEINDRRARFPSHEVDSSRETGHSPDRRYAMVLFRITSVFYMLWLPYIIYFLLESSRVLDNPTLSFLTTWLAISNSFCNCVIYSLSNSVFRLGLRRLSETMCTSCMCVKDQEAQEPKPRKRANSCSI
method: Glosensor cAMP assay in HEK293 cells transiently expressing human GPR52
Format: cell-based
recorded_conditions: HEK293, cAMP assay, relative to compound 4 as 100% and 0.5% DMSO as 0%; mean ± SEM; "—" not detected; read-out: Emax (%)
Recorded measurements of Emax, one per entry
assay_readout: Emax (%)

1. O=C(NCCO)c1cccc2c1CCN2c1cc(Sc2cccc(C(F)(F)F)c2)ncn1 [Compound 25l]	123
2. O=C(NCCO)c1cccc2c1CCN2c1nccc(C(F)c2cc(F)cc(C(F)(F)F)c2)n1 (stereo not shown) [Compound 25g]	144
3. O=C(N[C@@H](CO)C(O)c1ccccc1)c1cccc(Nc2cc(Cc3cccc(C(F)(F)F)c3)ccn2)c1 (stereo in doubt)	188
4. O=C(c1cccc(C(F)(F)F)c1)c1cc(N2CCc3c(C(=O)NCCO)cccc32)ncn1 [Compound 25c]	22
5. COC(=O)C(NC(=O)c1cccc(Nc2cc(Cc3cccc(C(F)(F)F)c3)ccn2)c1)[C@@H](C)O (stereo in doubt)	164
6. O=C(NCCO)c1cccc2c1CCN2c1nccc(C(O)c2cc(F)cc(C(F)(F)F)c2)n1 (stereo not shown) [Compound 25d]	130
7. O=C(NCCO)c1cccc2c1CCN2c1nccc(Cc2cc(F)cc(C(F)(F)F)c2)n1 [Compound 12d]	138
8. O=C(NCCO)c1cccc2c1CCN2c1cc(C(F)c2cccc(C(F)(F)F)c2)ncn1 (stereo not shown) [Compound 25i]	83
9. O=C(NCCO)c1cccc2c1CCN2c1cc(Cc2cc(F)cc(C(F)(F)F)c2)ncn1 [Compound 12c]	136
10. O=C(c1cc(F)cc(C(F)(F)F)c1)c1cc(N2CCc3c(C(=O)NCCO)cccc32)ncn1 [Compound 25b]	22
11. O=C(NCCO)c1cccc2c1CCN2c1cc(Nc2cccc(C(F)(F)F)c2)ncn1 [Compound 25j]	81
12. O=C(c1cccc2c1CCN2c1cc(Cc2cc(F)cc(C(F)(F)F)c2)ncn1)N1CC(O)C1 [Compound 30e]	111
13. O=C(c1cccc2c1CCN2c1cc(Cc2cc(F)cc(C(F)(F)F)c2)ncn1)N(CCO)CCO [Compound 30g]	119
14. O=C(NCCO)c1cccc2c1CCN2c1ccnc(Cc2cc(F)cc(C(F)(F)F)c2)n1 [Compound 12a]	144
15. O=C(NCCO)c1cccc2c1CCN2c1cc(C(O)c2cc(F)cc(C(F)(F)F)c2)ncn1 (stereo not shown) [Compound 25e]	134
16. O=C(NCCO)c1cccc2c1CCN2c1cc(Oc2cccc(C(F)(F)F)c2)ncn1 [Compound 25k]	99

* * *

method: Brain permeability in rats
Assay type: in vivo
recorded_conditions: male, Sprague-Dawley, brain/plasma; rat, IV 10 mg/kg, 1 h; read-out: Brain/Plasma Ratio
assay_readout: Kp at 1 h

1) O=C(NCCO)c1cccc2c1CCN2c1cc(Cc2cc(F)cc(C(F)(F)F)c2)ncn1 [Compound 12c]	0.39

* * *

experimental_target: human GPR52 (Homo sapiens (Human))
method: Glosensor cAMP assay in HEK293 cells transiently expressing human GPR52
Format: cell-based
recorded_conditions: HEK293
assay_readout: Emax (%)

1) O=C(NCCCCO)c1cccc(Nc2cc(Cc3cccc(C(F)(F)F)c3)ccn2)c1	129
2) Cc1c(Nc2cc(Cc3ccc(Cl)cc3F)ccn2)cccc1C(=O)NCCO	131
3) COCCNC(=O)c1cccc(Nc2cc(Cc3cccc(C(F)(F)F)c3)ccn2)c1	131
4) Cc1c(Cc2cc(F)cc(C(F)(F)F)c2)cnnc1N1CCc2c(C(=O)NCCO)cccc21 [Compound 12e]	119
5) O=C(NC(CO)CO)c1cccc(Nc2cc(Cc3cccc(C(F)(F)F)c3)ccn2)c1	214
6) O=C(N[C@H]1CC[C@H](O)CC1)c1cccc(Nc2cc(Cc3cccc(C(F)(F)F)c3)ccn2)c1	131
7) O=C(NCC(O)CO)c1cccc(Nc2cc(Cc3cccc(C(F)(F)F)c3)ccn2)c1 (stereo not shown)	268
8) O=C(NCC(F)F)c1cccc(Nc2cc(Cc3cccc(C(F)(F)F)c3)ccn2)c1	152
9) O=C(NCCO)c1cccc2c1CCN2c1nncc(Cc2cc(F)cc(C(F)(F)F)c2)c1Cl [Compound 12f]	97
10) O=C(c1cccc(Nc2cc(Cc3cccc(C(F)(F)F)c3)ccn2)c1)N1CCOCC1	93
